The entries below come with measured inhibition at 1 µM values attached.
target: GRK2 (Homo sapiens, UniProt P25098); assay: GRK2 Degradation Assay and Western Blot in PAXF1657 cells; assay type: cell-based; parameters: endogenous in cells; host or cells: PAXF1657; settings: Conc 1 uM; read-out: Degradation Assay - 3 point: Degradation (%)
Where a name gives a salt, the structure may show the parent alone.

C[C@@H](NC(=O)c1cccc(NCc2nnc(-c3ccncn3)n2C)c1)c1ccc(OCCCCCCOCCOCCOCCCC(=O)Nc2cccc3c2CN(C2CCC(=O)NC2=O)C3=O)cc1 (stereo partly drawn) [Compound D127] :: 82.1%
C[C@@H](NC(=O)c1cccc(NCc2nnc(-c3ccncn3)n2C)c1)c1cccc(OCCCN2CCN(c3ccc4c(c3)CN(C3CCC(=O)NC3=O)C4=O)CC2)c1 (stereo partly drawn) [Compound D123, hydrochloride] :: 85.2%

Here is another compound to look at.
Provide measured inhibition at 1 µM value, entry: CN[C@@H](C)C(=O)N[C@H](C(=O)N1CCC[C@H]1c1nc(C(=O)c2cccc(OCc3cn(CCCCCCOc4cccc([C@@H](C)NC(=O)c5cccc(NCc6nnc(-c7ccncn7)n6C)c5)c4)nn3)c2)cs1)C1CCCCC1 [Compound D105] 86%

###

Biological target: UniProt P25098
Sequence (P25098 1-689): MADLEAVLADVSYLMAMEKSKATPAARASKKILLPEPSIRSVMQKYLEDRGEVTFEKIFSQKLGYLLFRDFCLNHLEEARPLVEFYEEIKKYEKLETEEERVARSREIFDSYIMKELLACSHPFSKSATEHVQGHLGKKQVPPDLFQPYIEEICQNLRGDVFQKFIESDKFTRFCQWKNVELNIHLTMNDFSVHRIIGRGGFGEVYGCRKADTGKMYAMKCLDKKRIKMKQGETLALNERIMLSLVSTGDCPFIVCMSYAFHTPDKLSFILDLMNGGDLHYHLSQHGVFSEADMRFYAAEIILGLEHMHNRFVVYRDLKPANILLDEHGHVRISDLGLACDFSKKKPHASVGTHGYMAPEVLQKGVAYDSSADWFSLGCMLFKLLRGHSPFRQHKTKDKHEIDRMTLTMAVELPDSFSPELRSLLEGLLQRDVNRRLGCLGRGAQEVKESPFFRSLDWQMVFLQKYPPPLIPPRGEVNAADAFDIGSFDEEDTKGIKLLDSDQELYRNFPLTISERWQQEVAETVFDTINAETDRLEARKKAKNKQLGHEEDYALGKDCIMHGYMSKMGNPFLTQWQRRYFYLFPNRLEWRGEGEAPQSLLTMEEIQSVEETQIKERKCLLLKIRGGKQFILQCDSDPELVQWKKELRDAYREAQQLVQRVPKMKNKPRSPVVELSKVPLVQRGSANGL
Experiment: GRK2 Degradation Assay and Western Blot in PAXF1657 cells
Format: cell-based
Set-up: endogenous in cells; host or cells: PAXF1657
Conditions: Conc 3 uM; read-out: Degradation Assay - 3 point: Degradation (%)
Structures can show the parent of a compound that is named as a salt.
valueType: inhibition at 3 µM (%)
Report the value in % with no unit label.

C[C@@H](NC(=O)c1cccc(NCc2nnc(-c3ccncn3)n2C)c1)c1cccc(C(=O)N2CCC(CCCN3CCN(c4ccc5c(c4)CN(C4CCC(=O)NC4=O)C5=O)CC3)CC2)c1 (stereo partly shown) [Compound D119, hydrochloride] :: 89
C[C@@H](NC(=O)c1cccc(NCc2nnc(-c3ccncn3)n2C)c1)c1cccc(OCCCCCCOCCOCC(=O)N2CCN(c3cc4c(cc3F)C(=O)N(C3CCC(=O)NC3=O)C4=O)CC2)c1 (stereo partly shown) [Compound D139] :: 95
C[C@@H](NC(=O)c1cccc(NCc2nnc(-c3ccncn3)n2C)c1)c1cccc(OCCCCCOCCCOCC(=O)N2CCN(c3cc4c(cc3F)C(=O)N(C3CCC(=O)NC3=O)C4=O)CC2)c1 (stereo partly shown) [Compound D180] :: 85

Here is another compound to look at.
Provide measured inhibition at 3 µM value, entry: C[C@@H](NC(=O)c1cccc(NCc2nnc(-c3ccncn3)n2C)c1)c1cccc(OCCCCCCOCCOCCNc2ccc3c(c2)CN(C2CCC(=O)NC2=O)C3=O)c1 (stereo partly shown) [Compound D141] 67
